- protocol-details: oral pharmacokinetics (plasma, brain, CSF)
- Assay type: in vivo
- condition-description: Sprague Dawley, rat, plasma, po, 10 mg/kg, Sprague Dawley rats, per os 10 mg/kg, plasma; read-out: Cmax
# key: entry, value: Cmax
experimental-endpoint: Cmax (ng/mL)

compound	value-unit	obs-value
O=C1NCCC12CCCNC2 (stereo not drawn) [RB-1, 2,7-diazaspiro[4.5]decan-1-one]	ng/mL	825
O=C1NCCC12CCCCN2 (stereo not drawn)	ng/mL	3990
CC(=O)N1CCC2(CCNC2=O)CC1	ng/mL	12000
O=C1NCCC12CCNCC2	ng/mL	311
CC(C)C(=O)N1CCC2(CCNC2=O)CC1	ng/mL	10900
CC(C)(C)OC(=O)N1CCCC2(CCNC2=O)C1 (single isomer, unassigned)	ng/mL	495
CC(C)C(=O)N1CCCC12CCNC2=O (stereo not drawn)	ng/mL	10800
O=C1NCCC12CCCN2 (single isomer, unassigned) [RW-1, 1,7-diazaspiro[4.4]nonan-6-one]	ng/mL	4070
CC(C)(C)OC(=O)N1CCCC12CCNC2=O (single isomer, unassigned)	ng/mL	4310
